- Test system: Staphylococcus aureus subsp. aureus (ATCC29213)
- assay.summary: MIC, broth microdilution (CLSI), Staphylococcus aureus subsp. aureus ATCC29213
- Type: cell-based
- condition.info: ATCC29213, Table 15, read-out: S. aureus ("wound") (MIC)
property.label: MIC (µg/mL)

INSERT INTO measurements (compound, recorded_result) VALUES
  ('Cl.NC1CCCC(CNc2cc(C(F)(F)F)cc3c2Nc2ccc(N4CCCC4)cc2S3)C1 (stereo not shown) [compound 300]', 1),
  ('Cl.Cl.NCCN1CCC(Nc2cc(C(F)(F)F)cc3c2Nc2ccc(C(=O)N4CCCC4)cc2S3)CC1 [compound 293]', 8),
  ('Cl.Cl.NCCN1CCC(Nc2cc(C(F)(F)F)cc3c2Nc2ccc(Br)cc2S3)CC1 [compound 282]', 4),
  ('NCCNC(=O)c1ccc2c(c1)Sc1cc(C(F)(F)F)cc(NC3CCN(CCN)CC3)c1N2 [compound 255]', 8);

====

Entries annotated with measured pIC50
- System: E. coli RNase P RNA, M1 RNA
- assay.summary: Inhibition of bacterial RNase P activity, IC50 determination (cleavage of pATSerUG by M1 RNA)
- Assay type: biochemical
- condition.info: NI = No inhibition
pIC50: −log10 of the molar value.
property.label: pIC50

INSERT INTO results (compound, property_label, comparative_sign, recorded_result) VALUES
  ('FC(F)(F)c1cc(NC2CCNCC2)c2c(c1)Sc1cc(-c3cc4ccccc4[nH]3)ccc1N2', 'pIC50', '=', 4.41),
  ('NCCN1CCC(Nc2cc(C(F)(F)F)cc3c2Nc2ccc(Cl)cc2S3)CC1', 'pIC50', '=', 4.64),
  ('NC1CCCC(Nc2cc(C(F)(F)F)cc3c2Nc2ccccc2S3)C1 (centres unmarked)', 'pIC50', '=', 5.10),
  ('Cl.Cl.NCCNCCC(=O)Nc1cc(C(F)(F)F)cc2c1Nc1ccc(N3CCCC3)cc1S2 [compound 302, hydrochloride]', 'pIC50', '=', 5.44),
  ('Nc1cc(C(F)(F)F)cc2c1Nc1ccc(-c3cc4ccccc4[nH]3)cc1S2', 'pIC50', '=', 3.44),
  ('N#Cc1cc(NC2CCN(CCN)CC2)c2c(c1)Sc1ccccc1N2', 'pIC50', '<', 4.00),
  ('NCCN1CCC(Nc2cc(C(F)(F)F)cc3c2Nc2ccccc2S3)CC1', 'pIC50', '=', 5.10),
  ('CN(C)CCCN1c2ccccc2Sc2cc(-c3cc4cc(CN)ccc4[nH]3)ccc21', 'pIC50', '<', 4.00);

====

- System: Staphylococcus aureus (ATCC25923)
- assay.summary: MIC, broth microdilution (CLSI), Staphylococcus aureus ATCC25923
- condition.info: ATCC25923, read-out: S. aureus ("Clinical") MIC
Could you please mark t for values of MIC below 7 mg/L and f for values at or above it?

INSERT INTO assay_data (compound, assigned_class) VALUES
  ('OCC1CCC(Nc2cc(C(F)(F)F)cc3c2Nc2ccccc2S3)CC1 (stereo not shown) [compound 192]', 't'),
  ('Nc1cccc(C(=O)Nc2cc(C(F)(F)F)cc3c2Nc2ccccc2S3)c1 [compound 134]', 't'),
  ('CN(C)CCCN1c2ccccc2Sc2cc(-c3cc4ccccc4[nH]3)ccc21 [compound 111]', 't'),
  ('CN(C)CCCN1c2ccc(-c3cc4ccccc4[nH]3)cc2Sc2cccnc21 [compound 135]', 't'),
  ('NC1CCCC(C(=O)Nc2cc(C(F)(F)F)cc3c2Nc2ccccc2O3)C1 (stereo not shown) [compound 156]', 'f'),
  ('CN(C)CCCN1c2ccccc2Sc2cc(C(F)(F)F)cc(NC(N)=S)c21 [compound 87]', 'f'),
  ('NCCN1CCC(C(=O)Nc2cc(C(F)(F)F)cc3c2Nc2ccccc2S3)CC1 [compound 199]', 'f'),
  ('O=C(Nc1cc(C(F)(F)F)cc2c1Nc1ccccc1S2)C1CNC1 [compound 188]', 'f'),
  ('NCCCNC1CCCC(C(=O)Nc2cc(C(F)(F)F)cc3c2Nc2ccccc2S3)C1 (stereo not shown) [compound 162]', 'f'),
  ('NC[C@H]1CCC[C@H](CNc2cc(C(F)(F)F)cc3c2Nc2ccccc2S3)C1 [compound 189]', 't'),
  ('O=C(Nc1cc(C(F)(F)F)cc2c1Nc1ccccc1S2)C1CCCC(O)C1 (stereo not shown) [compound 148]', 'f'),
  ('CN(C)CCCN1c2ccc(Cl)cc2Sc2cccnc21 [compound 126]', 'f');

====

- System: Staphylococcus aureus (ATCC25923)
- assay.summary: MIC, broth microdilution (CLSI), Staphylococcus aureus ATCC25923
- condition.info: ATCC25923, read-out: S. aureus ("Clinical") MIC
Entries annotated with measured MIC
property.label: MIC (µg/mL)

INSERT INTO measurements (molecule, measurement_target, recorded_result) VALUES
  ('NC[C@H]1CC[C@H](C(=O)Nc2cc(C(F)(F)F)cc3c2Nc2ccccc2O3)CC1', 'Staphylococcus aureus (ATCC25923)', 26),
  ('N#Cc1ccc2c(c1)Sc1cc(C(F)(F)F)cc(NC3CCN(CCN)CC3)c1N2', 'Staphylococcus aureus (ATCC25923)', 2),
  ('NC[C@H]1CC[C@H](C(=O)Nc2cc(C(F)(F)F)cc3c2Nc2ccccc2S3)CC1', 'Staphylococcus aureus (ATCC25923)', 27),
  ('N[C@@H]1CCC[C@@H](CNc2cc(C(F)(F)F)cc3c2Nc2ccccc2S3)C1', 'Staphylococcus aureus (ATCC25923)', 3),
  ('NCCN1CCC(Nc2cc(Cl)cc3c2Nc2ccccc2S3)CC1', 'Staphylococcus aureus (ATCC25923)', 12),
  ('FC(F)(F)c1cc(NC2CCCNCC2)c2c(c1)Sc1ccccc1N2 (centres unmarked)', 'Staphylococcus aureus (ATCC25923)', 6),
  ('O=C(Nc1cc(C(F)(F)F)cc2c1Nc1ccccc1S2)C1CCNCC1', 'Staphylococcus aureus (ATCC25923)', 25),
  ('NC1CCCCC1C(=O)Nc1cc(C(F)(F)F)cc2c1Nc1ccccc1S2 (centres unmarked)', 'Staphylococcus aureus (ATCC25923)', 7);

====

Entries annotated with measured MIC
- Test system: Escherichia coli (ATCC25922)
- assay.summary: MIC, broth microdilution (CLSI), Escherichia coli ATCC25922
- condition.info: ATCC25922, read-out: E. coli MIC, Table 15, NI = No inhibition
property.label: MIC (µg/mL)

INSERT INTO measurements (compound, measurement_target, property_label, comparative_sign, recorded_result) VALUES
  ('CC1CCN(c2ccc3c(c2)Sc2cc(C(F)(F)F)cc(NC4CCN(CCN)CC4)c2N3)C1C.Cl (centres unmarked)', 'Escherichia coli (ATCC25922)', 'MIC', '=', 4),
  ('O=C(CC1CCC(F)(F)CC1)Nc1cc(C(F)(F)F)cc2c1Nc1ccccc1S2', 'Escherichia coli (ATCC25922)', 'MIC', '>', 100),
  ('Cl.Cl.NCCN1CCC(Nc2cc(C(F)(F)F)cc3c2Nc2ccc(C4CCCC4)cc2S3)CC1', 'Escherichia coli (ATCC25922)', 'MIC', '=', 8),
  ('CN(C)CCCN1c2ccccc2Sc2cc(-c3ccc4scnc4c3)ccc21', 'Escherichia coli (ATCC25922)', 'MIC', '>', 100),
  ('CC1CC(C)CN(c2ccc3c(c2)Nc2c(NC4CCN(CCN)CC4)cc(C(F)(F)F)cc2S3)C1.Cl (centres unmarked)', 'Escherichia coli (ATCC25922)', 'MIC', '=', 64),
  ('CC1CCCCN1c1ccc2c(c1)Sc1cc(C(F)(F)F)cc(NC3CCN(CCN)CC3)c1N2.Cl.Cl.Cl (centres unmarked)', 'Escherichia coli (ATCC25922)', 'MIC', '=', 8),
  ('NCCN1CCC(c2nc3cc(C(F)(F)F)cc4c3n2-c2ccccc2S4)CC1', 'Escherichia coli (ATCC25922)', 'MIC', '=', 13),
  ('CC(N)CC(=O)Nc1cc(C(F)(F)F)cc2c1N(CCCN(C)C)c1ccccc1S2 (centres unmarked)', 'Escherichia coli (ATCC25922)', 'MIC', '>', 100);

====

- Tested on: S. pneumoniae ATCC 49619
- assay.summary: MIC, S. pneumoniae ATCC 49619
- Format: cell-based
- condition.info: Streptococcus pneumoniae, ATCC49619
property.label: MIC (µg/mL)

INSERT INTO measurements (compound, units_of_measure, recorded_result) VALUES
  ('NCCCN1c2ccccc2Sc2cc(-c3cc4ccccc4[nH]3)ccc21', 'µg/mL', 8),
  ('Cl.Cl.NCCN1CCC(Nc2cc(C(F)(F)F)cc3c2Nc2ccc(N4CCCC4)cc2S3)CC1', 'µg/mL', 8),
  ('CNCCCN1c2ccccc2Sc2cc(-c3cc4ccccc4[nH]3)ccc21', 'µg/mL', 32),
  ('CC1(C)CCCN(c2ccc3c(c2)Sc2cc(C(F)(F)F)cc(NC4CCN(CCN)CC4)c2N3)C1.Cl.Cl', 'µg/mL', 2),
  ('NC1CCCC(CNc2cc(C(F)(F)F)cc3c2Nc2ccccc2S3)C1 (stereo not shown)', 'µg/mL', 32),
  ('CCN(CC)c1ccc2c(c1)Sc1cc(C(F)(F)F)cc(NC3CCN(CCN)CC3)c1N2.Cl.Cl.Cl', 'µg/mL', 4),
  ('CN(C)CCCN1c2ccccc2Sc2cc(-c3cc4ccccc4[nH]3)ccc21', 'µg/mL', 8),
  ('CN(C)CCCN1c2ccccc2Sc2cc(-c3cc4cc(C#N)ccc4[nH]3)ccc21', 'µg/mL', 8),
  ('O=C(/C=C/c1ccc(F)cc1)Nc1cc(C(F)(F)F)cc2c1Nc1ccccc1S2', 'µg/mL', 8),
  ('CC1CCCN(c2ccc3c(c2)Sc2cc(C(F)(F)F)cc(NC4CCN(CCN)CC4)c2N3)C1.Cl.Cl (stereo not shown)', 'µg/mL', 4),
  ('NCCNC(=O)c1ccc2c(c1)Sc1cc(C(F)(F)F)cc(NC3CCN(CCN)CC3)c1N2', 'µg/mL', 64),
  ('CC(C)NCCCN1c2ccccc2Sc2cc(-c3cc4ccccc4[nH]3)ccc21', 'µg/mL', 4),
  ('Cl.Cl.NCCNCCC(=O)Nc1cc(C(F)(F)F)cc2c1Nc1ccc(N3CCCC3)cc1S2', 'µg/mL', 64),
  ('CC1CCN(c2ccc3c(c2)Sc2cc(C(F)(F)F)cc(NC4CCN(CCN)CC4)c2N3)CC1.Cl.Cl', 'µg/mL', 8),
  ('NC1CCCC(C(=O)Nc2cc(C(F)(F)F)cc3c2Nc2ccc(-c4cc5ccccc5[nH]4)cc2S3)C1 (stereo not shown)', 'µg/mL', 16),
  ('NCCCN1c2ccc(-c3cc4ccccc4[nH]3)cc2Sc2cc(C(F)(F)F)ccc21', 'µg/mL', 16);
